Where these numbers come from: the emibetuzumab library of Makowski et al. (2022)

B1: VH:VL chains; a variant is named by its letters at X, in order (parent)
chain 1: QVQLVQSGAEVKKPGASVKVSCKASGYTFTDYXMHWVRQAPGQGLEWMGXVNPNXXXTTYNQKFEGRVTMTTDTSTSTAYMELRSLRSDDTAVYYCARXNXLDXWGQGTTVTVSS
chain 2: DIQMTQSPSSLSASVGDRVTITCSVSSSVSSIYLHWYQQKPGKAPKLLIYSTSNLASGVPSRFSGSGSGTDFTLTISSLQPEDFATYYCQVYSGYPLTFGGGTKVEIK

Variants of: B1
ASSAY_METHOD_TEXT: yeast display scFab, FACS + sequencing
RUN_CONDITIONS: with MET
The list shows a part of the results. No count for the full screen is at hand.
REPORTED_PROPERTY: antigen binding call

Observe how each entry below is paired with its result.
>  <MUTATION_CODE>
VAGTGSSD

>  <antigen binding call>
no binding

$$$$
>  <MUTATION_CODE>
VTGEDDVA

>  <antigen binding call>
no binding

$$$$
>  <MUTATION_CODE>
VRGTGDWD

>  <antigen binding call>
no binding

$$$$
>  <MUTATION_CODE>
SKTKSDWA

>  <antigen binding call>
no binding

$$$$
>  <MUTATION_CODE>
VAGTGSSV

>  <antigen binding call>
no binding

$$$$
>  <MUTATION_CODE>
DTAGDAAV

>  <antigen binding call>
no binding

$$$$
>  <MUTATION_CODE>
VRGTGSWD

>  <antigen binding call>
binds

$$$$
>  <MUTATION_CODE>
YRGKSDGS

>  <antigen binding call>
no binding

$$$$
>  <MUTATION_CODE>
YTAGSDGA

>  <antigen binding call>
no binding

$$$$
>  <MUTATION_CODE>
DKEGGDGV

>  <antigen binding call>
no binding

$$$$

Take each entry in turn and give its antigen binding call.
1. SRGGGVGY
2. VTGGDSSD
3. DAGTGAGD
4. SEARSSGY
5. YRRRGALY
6. YRRRGDGD

## Output
1. no binding
2. no binding
3. no binding
4. no binding
5. binds
6. binds
